Below: a set of entries, each annotated with reported EC50.
System: Ramos cells
method.notes: Cytotoxicity (cell death) in Ramos cells
Format: cell-based
condition.info: Homo sapiens, Ramos

Please review the following examples before continuing.
{"structure.string": "O=C(/N=C(/NCCc1nc[nH]n1)Nc1ccc(-c2ccccc2)cc1)c1cccc(Cl)c1", "target.desc": "Ramos cells", "EC50": "> 10 µM"}
{"structure.string": "O=C(/N=C(/NCCc1cn[nH]c1)Nc1ccc(-c2ccccc2)cc1)c1cccc(Cl)c1", "target.desc": "Ramos cells", "EC50": "< 10 µM"}
{"structure.string": "C[C@@H](Cc1c[nH]cn1)N/C(=N/C(=O)c1cccc(Cl)c1)Nc1ccc(-c2ccccc2)cc1", "target.desc": "Ramos cells", "EC50": "< 10 µM"}
{"structure.string": "O=C(/N=C(/NCCN1CCNC1=O)Nc1ccc(-c2ccccc2)cc1)c1cccc(Cl)c1", "target.desc": "Ramos cells", "EC50": "> 30 µM"}

Then this molecule:
Per the record, O=C(/N=C(/NCCc1c[nH]cn1)Nc1ccc2cc[nH]c2c1)c1cccc(Cl)c1 has EC50 of > 20 µM

###

target.desc: F1F0-ATPase (Bos taurus)
method.notes: Inhibition of ATP hydrolysis by the F1F0-ATPase
Type: biochemical
condition.info: IC40: concentration for 40% inhibition
quantity.name: ATP Hydrolysis (IC40 μM)

Below: 2 molecules and their reported ATP Hydrolysis (IC40 μM).
{"molecule": "O=C(N=C(NCCc1c[nH]cn1)Nc1ccc(-c2ccccc2)cc1)c1ccc(F)cc1 [II-9]", "ATP Hydrolysis (IC40 μM)": ">30 µM"}
{"molecule": "O=C(/N=C(/NCCc1c[nH]cn1)Nc1ccc2[nH]ccc2c1)c1cccc(Cl)c1 [Compound V-2]", "ATP Hydrolysis (IC40 μM)": ">20 µM"}

Looking up O=C(/N=C(/NCCc1c[nH]cn1)Nc1cccc2cc[nH]c12)c1cccc(Cl)c1 [Compound V-4] , I see its ATP Hydrolysis (IC40 μM) listed as >10 µM

Entry O=C(N=C(NCCc1c[nH]cn1)Nc1cccc(-c2ccccc2)c1)c1ccc(F)cc1 [VI-8] , ATP Hydrolysis (IC40 μM) reported as >10 µM

###

Catalogue of ATP Synthesis (IC40 μM) readings, one per entry.
target.desc: F1F0-ATPase (Bos taurus, UniProt P13621)
method.notes: Inhibition of ATP synthesis by the F1F0-ATPase
Format: biochemical
condition.info: IC40: concentration for 40% inhibition
Procedure: The compounds listed in Table 9 were tested for activity against F1F0-ATPase by measuring ATP synthesis and ATP hydrolysis. In addition, the compounds were assessed for cytotoxicity in Ramos cells Inhibition of ATP synthesis and hydrolysis by the F1F0-ATPase and cytotoxicity in Ramos cells was measured as described in K. M. Johnson et al. Chemistry & Biology 2005, 12, 485-496.

Example entries and their recorded answers appear below.
{"structure.string": "O=C(N=C(NCCc1c[nH]cn1)Nc1ccc(-c2ccccc2)cc1)c1cccc(Br)c1", "result": ">10 µM"}
{"structure.string": "O=C(N=C(NCCc1c[nH]cn1)Nc1cccc(F)c1)c1cccc(Cl)c1", "result": ">20 µM"}
{"structure.string": "O=C(N=C(NCCc1c[nH]cn1)Nc1ccc(Br)cc1)c1cccc(Cl)c1", "result": ">10 µM"}
{"structure.string": "O=C(N=C(NCCc1c[nH]cn1)Nc1cccc(-c2ccccc2)c1)c1ccc([N+](=O)[O-])cc1", "result": "<10 µM"}
{"structure.string": "O=C(N=C(NCCc1c[nH]cn1)Nc1cccc(-c2ccccc2)c1)c1cccc([N+](=O)[O-])c1", "result": "<10 µM"}
{"structure.string": "O=C(N=C(NCCc1c[nH]cn1)Nc1cccc(-c2ccccc2)c1)c1ccc(F)cc1", "result": "<10 µM"}
{"structure.string": "O=C(N=C(NCCc1c[nH]cn1)Nc1ccc(-c2ccccc2)cc1)c1ccc(F)cc1", "result": ">20 µM"}
{"structure.string": "O=C(N=C(NCCc1c[nH]cn1)Nc1ccc(C(F)(F)F)cc1)c1cccc(Cl)c1", "result": ">10 µM"}

Now consider a different compound.
Tested on F1F0-ATPase (Bos taurus, UniProt P13621), the item Cc1cccc(C(=O)N=C(NCCc2c[nH]cn2)Nc2cccc(-c3ccccc3)c2)c1 showed ATP Synthesis (IC40 μM) equal to <10 µM

Reference source: patent US8324258B2
